TARGET_OF_ASSAY: biotinylated human DLL3 protein expressed as a human IgG1 fusion protein (human) (UniProt Q9NYJ7)
Sequence (Q9NYJ7 other isoform, or with tags, fused parts or gaps): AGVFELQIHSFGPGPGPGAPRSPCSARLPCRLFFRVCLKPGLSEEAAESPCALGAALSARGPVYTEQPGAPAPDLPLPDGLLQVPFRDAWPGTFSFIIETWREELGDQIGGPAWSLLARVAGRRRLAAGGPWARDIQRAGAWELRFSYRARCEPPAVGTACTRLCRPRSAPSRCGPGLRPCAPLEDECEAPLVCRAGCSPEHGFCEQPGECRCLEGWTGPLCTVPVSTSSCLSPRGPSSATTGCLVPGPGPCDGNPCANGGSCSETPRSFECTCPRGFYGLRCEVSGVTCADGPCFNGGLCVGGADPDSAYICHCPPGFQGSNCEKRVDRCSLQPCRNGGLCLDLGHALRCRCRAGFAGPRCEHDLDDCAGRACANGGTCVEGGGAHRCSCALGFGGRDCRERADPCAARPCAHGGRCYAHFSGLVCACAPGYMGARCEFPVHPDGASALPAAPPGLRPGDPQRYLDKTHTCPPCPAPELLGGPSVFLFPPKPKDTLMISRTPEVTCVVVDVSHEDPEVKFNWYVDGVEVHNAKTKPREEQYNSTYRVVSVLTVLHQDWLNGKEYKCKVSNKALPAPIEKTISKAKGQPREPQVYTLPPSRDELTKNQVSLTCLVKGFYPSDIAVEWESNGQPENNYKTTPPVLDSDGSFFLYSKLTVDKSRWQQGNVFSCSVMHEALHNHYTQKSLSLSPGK
MEASUREMENT_NOTES: Octet BLI; biotinylated huDLL3-IgG1 fusion on streptavidin tips; single 50 nM; conditioned medium
pKd: −log10 of the molar value.
Collected pKd values appear next to each entry.

BINDER: anti-DLL3 trispecific protein 1G011 (protein, part only; not given: CD3 binder and albumin binder, part only) chain, part: EVQLVESGGGLVQPGGSLTLSCVASGSTSSINAMAWYRRAPGKQRELVAGISSDGSKVYADSVKGRFTISRDNAKNSVYLQMNSLRAEDTAVYYCYYFKTVSGSSMRYWGQGTLVTVSSGGGGSGGGSGGGGSGGGSHHHHHH
pKd: 8.17
--
BINDER: anti-DLL3 trispecific protein 4D05 (protein, part only; not given: anti-CD3 fragment and anti-albumin domain, part only) chain, part: EVQLVESGGGLVQPGGSLTLSCAASGSSSSFLSMAWYRQAPGKKRELVAGISADGSTVYIDSVKGRFTISRDNAKNSVYLQMNSLRAEDTAVYYCYAYRWTTRRTYWGQGTLVTVSSGGGGSGGGSGGGGSGGGSHHHHHH
pKd: 8.19
--
BINDER: anti-DLL3 trispecific protein 1E012 (protein, part only; not given: CD3 binder and albumin binder, part only) chain, part: EVQLVESGGGLVQPGGSLTLSCVASGSTSSTNAMGWYRRAPGKQRELVAGISSDGSKVYVDSVKGRFTISRDNAKNSVYLQMNSLRAEDTAVYYCYYFRTVSGSSMVYWGQGTLVTVSSGGGGSGGGSGGGGSGGGSHHHHHH
pKd: 8.28
--
BINDER: anti-DLL3 trispecific protein 2C02 (protein, part only; not given: CD3 binder and albumin binder, part only) chain, part: EVQLVESGGGLVQPGGSLTLSCVASGSTSSINAVGWYRRAPGKQRELVAGISSDGSKVYVDSVKGRFTISRDNAKNSVYLQMNSLRAEDTAVYYCYYFRTVYGSSMRYWGQGTLVTVSSGGGGSGGGSGGGGSGGGSHHHHHH
pKd: 8.39
--
BINDER: anti-DLL3 trispecific protein 3D011 (protein, part only; not given: CD3 binder and albumin binder, part only) chain, part: EVQLVESGGGLVQPGGSLTLSCAASGSSVSRLSMAWYRQAPGKKRELVAGISADGSRDYIDSVKGRFTISRDNAKNSVYLQMNSLRAEDTAVYYCYAYRWTTRYKYWGQGTLVTVSSGGGGSGGGSGGGGSGGGSHHHHHH
pKd: 8.28
--
BINDER: anti-DLL3 trispecific protein 3C04 (protein, part only; not given: anti-CD3 and anti-albumin domains, part only) chain, part: EVQLVESGGGLVQPGGSLTLSCAASGSHVSFLSMAWYRQAPGKKRELVAGISADGPTDYIDSVKGRFTISRDNAKNSVYLQMNSLRAEDTAVYYCYAYRWDTRYTYWGQGTLVTVSSGGGGSGGGSGGGGSGGGSHHHHHH
pKd: 8.35
--
BINDER: anti-DLL3 trispecific protein 4G010 (protein, part only; not given: anti-CD3 and anti-albumin domains, part only) chain, part: EVQLVESGGGLVQPGGSLTLSCAASGHSVSFLSMAWYRQAPGKKRELVAGISADGSTDYIASVKGRFTISRDNAKNSVYLQMNSLRAEDTAVYYCYAYRWSTRYTYWGQGTLVTVSSGGGGSGGGSGGGGSGGGSHHHHHH
pKd: 8.00
